Quick reference: IC50 of the listed items.
Biological target: full-length beta-Catenin (Uniprot ID P35222) (Homo sapiens, UniProt P35222)
Construct: 10 nM full-length beta-Catenin (Uniprot ID P35222)
Sequence (P35222 1-781): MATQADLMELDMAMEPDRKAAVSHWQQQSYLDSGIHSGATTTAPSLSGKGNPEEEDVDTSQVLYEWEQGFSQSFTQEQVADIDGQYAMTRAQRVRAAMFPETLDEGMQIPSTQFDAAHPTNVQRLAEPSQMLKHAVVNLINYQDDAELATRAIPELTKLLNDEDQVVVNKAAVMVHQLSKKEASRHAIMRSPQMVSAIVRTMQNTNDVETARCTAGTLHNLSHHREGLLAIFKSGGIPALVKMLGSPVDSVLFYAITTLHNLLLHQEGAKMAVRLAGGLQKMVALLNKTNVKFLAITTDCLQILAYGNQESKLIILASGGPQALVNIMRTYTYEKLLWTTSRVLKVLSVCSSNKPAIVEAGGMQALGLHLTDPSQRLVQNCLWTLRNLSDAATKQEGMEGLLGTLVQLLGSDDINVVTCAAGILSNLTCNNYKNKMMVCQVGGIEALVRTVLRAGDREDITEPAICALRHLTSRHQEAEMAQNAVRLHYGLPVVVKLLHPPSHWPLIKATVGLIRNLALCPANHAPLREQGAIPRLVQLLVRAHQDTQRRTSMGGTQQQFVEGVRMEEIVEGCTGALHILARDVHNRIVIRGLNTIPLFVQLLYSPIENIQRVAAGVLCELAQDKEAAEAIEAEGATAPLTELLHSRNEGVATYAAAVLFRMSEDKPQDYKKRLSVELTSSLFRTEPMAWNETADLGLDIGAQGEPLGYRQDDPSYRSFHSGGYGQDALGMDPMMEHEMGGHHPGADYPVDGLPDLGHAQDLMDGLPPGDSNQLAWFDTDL
Experiment: Fluorescence polarization IC50 (beta-catenin / 5FAM-TCF4 10-53 competition)
Assay type: binding
Details: read-out: beta-Catenin FP IC50
Provide only the numeric value, understood in nM.

Would you please look over these solved cases?
# Molecule, Measured on, Recorded value
rows = [
    ("CC(=O)N1CCC[C@]12CC=CCCCC1(CCCC=CCCCOC(=O)N3CC[C@@](C(=O)N[C@@H](Cc4ccccc4Cl)C(=O)N[C@@H](Cc4csc5ccccc45)C(=O)N[C@@H](CCCCNC(C)C)C(N)=O)(C3)NC(=O)[C@H](CC(N)=O)NC(=O)[C@H](Cc3ccccc3)NC(=O)[C@H](C)NC(=O)[C@H](C)NC(=O)[C@H](CC(=O)O)NC(=O)[C@H](CC(=O)O)NC1=O)NC(=O)[C@H](CC(C)(C)C)NC(=O)[C@H](CC(=O)O)NC2=O (stereo partly drawn)", "full-length beta-Catenin (Uniprot ID P35222) (Homo sapiens, UniProt P35222)", 6),
    ("CC(=O)N1CCC[C@]12CC=CCCCC1(CCCC=CCCCOC(=O)N3CC[C@@](C(=O)N[C@@H](Cc4ccccc4Cl)C(=O)N[C@@H](Cc4csc5ccccc45)C(=O)N[C@@H](CCC(N)=O)C(N)=O)(C3)NC(=O)[C@H](Cc3ccccc3)NC(=O)[C@H](Cc3ccccc3)NC(=O)[C@H](C)NC(=O)[C@H](C)NC(=O)[C@H](CN(CC(=O)O)CC(F)(F)F)NC(=O)[C@H](CC(=O)O)NC1=O)NC(=O)[C@H](CC(C)(C)C)NC(=O)[C@H](CC(=O)O)NC2=O (stereo partly drawn)", "full-length beta-Catenin (Uniprot ID P35222) (Homo sapiens, UniProt P35222)", 27),
]

# input for lookup
Input: Find the recorded IC50 belonging to CC(=O)N1CCC[C@]12CC=CCCCC1(CCCC=CCCCOC(=O)N3CC[C@@](C(=O)N[C@@H](Cc4ccccc4)C(=O)N[C@@H](Cc4csc5ccccc45)C(=O)N[C@@H](CCC(N)=O)C(N)=O)(C3)NC(=O)[C@H](CC(C)C)NC(=O)[C@H](Cc3cccc(C(F)(F)F)c3)NC(=O)[C@H](C)NC(=O)[C@H](C)NC(=O)[C@H](CC(=O)O)NC(=O)[C@H](CC(=O)O)NC1=O)NC(=O)[C@H](CC(C)(C)C)NC(=O)[C@H](CC(=O)O)NC2=O (stereo partly drawn) and report it.
Output: 20
